Data origin, for the record: patent US20230399319A1

# target.under.test: NLRP3 inflammasome (Homo sapiens (Human), UniProt Q96P20)
# Sequence (Q96P20 whole entry): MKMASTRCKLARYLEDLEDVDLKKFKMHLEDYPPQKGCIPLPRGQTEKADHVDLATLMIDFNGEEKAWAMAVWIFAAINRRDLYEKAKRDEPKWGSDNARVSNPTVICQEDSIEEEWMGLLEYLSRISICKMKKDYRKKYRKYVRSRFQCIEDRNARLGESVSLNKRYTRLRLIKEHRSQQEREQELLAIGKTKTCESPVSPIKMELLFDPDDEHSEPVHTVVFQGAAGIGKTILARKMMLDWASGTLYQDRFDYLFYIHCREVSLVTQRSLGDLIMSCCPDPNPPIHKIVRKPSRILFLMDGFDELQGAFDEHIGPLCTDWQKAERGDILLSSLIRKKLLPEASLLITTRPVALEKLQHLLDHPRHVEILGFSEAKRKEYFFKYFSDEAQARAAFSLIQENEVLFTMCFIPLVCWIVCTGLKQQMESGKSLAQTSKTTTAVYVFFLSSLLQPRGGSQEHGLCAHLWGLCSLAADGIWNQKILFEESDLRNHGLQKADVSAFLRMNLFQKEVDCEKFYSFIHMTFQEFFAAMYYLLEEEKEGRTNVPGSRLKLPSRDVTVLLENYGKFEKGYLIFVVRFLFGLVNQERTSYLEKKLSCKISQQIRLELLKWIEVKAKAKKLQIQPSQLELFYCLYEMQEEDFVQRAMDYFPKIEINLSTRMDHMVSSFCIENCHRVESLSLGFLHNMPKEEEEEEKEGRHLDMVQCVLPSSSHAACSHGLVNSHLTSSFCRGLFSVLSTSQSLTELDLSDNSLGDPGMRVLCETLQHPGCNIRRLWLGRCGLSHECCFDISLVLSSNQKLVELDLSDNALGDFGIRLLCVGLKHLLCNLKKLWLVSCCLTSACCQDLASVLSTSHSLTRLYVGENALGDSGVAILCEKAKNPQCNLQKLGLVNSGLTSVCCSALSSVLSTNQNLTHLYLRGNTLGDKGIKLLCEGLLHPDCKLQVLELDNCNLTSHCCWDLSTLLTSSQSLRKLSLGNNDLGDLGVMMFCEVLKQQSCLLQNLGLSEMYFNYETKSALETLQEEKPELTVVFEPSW
# measurement.description: Evaluation of NLRP3 inflammasome inhibitory activity (inhibition of IL-1β production in THP1-Null cells, LPS/Nigericin)
# protocol.conditions: IL-1β production in THP1-Null cells, PMA/LPS primed, Nigericin 7.5 μmol/L
I'd appreciate it if you could supply IC50 values for the items below.
Give bare numbers, in nM.

// solved cases for IC50 follow
{"compound": "COCCOC[C@@H]1CCN(S(=O)(=O)NC(=O)c2coc(Nc3cc(C)c(F)cc3C)n2)CCO1 [Example 3-005]", "observed.measurement": 40}
{"compound": "Cn1cc(N(C2CCOCC2)S(=O)(=O)NC(=O)c2cnc(Nc3c4c(cc5c3CCC5)CCC4)o2)cn1 [Example 18]", "observed.measurement": 5400}
{"compound": "O=C(NS(=O)(=O)N1CCCCC1)c1cnc(Nc2c3c(cc4c2CCC4)CCC3)o1 [Example 3]", "observed.measurement": 91}

Ask: Tell us which IC50 value is on record for Cc1ccc(C(F)(F)F)cc1Nc1nc(C(=O)NS(=O)(=O)N2CCCC2)co1 [Example 76]
Reply: 92

###

I'd appreciate it if you could supply IC50 values for the items below.
# target.under.test: NLRP3 inflammasome (Homo sapiens (Human))
# measurement.description: Evaluation of NLRP3 inflammasome inhibitory activity (inhibition of IL-1β production in THP1-Null cells, LPS/Nigericin)
# protocol.conditions: IL-1β production in THP1-Null cells, PMA/LPS primed, Nigericin 7.5 μmol/L
One number for each entry, in nM.

The following compounds each have a reported value; give each one's IC50.
1. CO[C@@H]1CCN(S(=O)(=O)NC(=O)c2coc(Nc3c4c(c(Cl)c5c3CCC5)CCC4)n2)C1
2. CC(=O)NC1CCN(S(=O)(=O)NC(=O)c2coc(Nc3c4c(c(F)c5c3CCC5)CCC4)n2)CC1
3. O=C(NS(=O)(=O)N1C2CCC1CC2)c1coc(Nc2c3c(c(Cl)c4c2CCC4)CCC3)n1

Reply:
[92, 270, 720]

###

# target.under.test: NLRP3 inflammasome (Homo sapiens (Human))
# measurement.description: Evaluation of NLRP3 inflammasome inhibitory activity (inhibition of IL-1β production in THP1-Null cells, LPS/Nigericin)
# protocol.conditions: read-out: % inhibition at 3 μM
I'd appreciate it if you could supply inhibition at 3 µM values for the items below.
Give bare numbers, in %.

// solved cases for inhibition at 3 µM follow
{"record.smiles": "CCc1nn(C(C)C)cc1Nc1nc(C(=O)NS(=O)(=O)N2CCCOCC2)co1", "target.under.test": "NLRP3 inflammasome (Homo sapiens (Human))", "inhibition at 3 µM (%)": 46}
{"record.smiles": "Cc1cnc(C)c(Nc2nc(C(=O)NS(=O)(=O)N(C)C)co2)n1", "target.under.test": "NLRP3 inflammasome (Homo sapiens (Human))", "inhibition at 3 µM (%)": 17}
{"record.smiles": "COCCCc1cc(C)c(Nc2nc(C(=O)NS(=O)(=O)N(C)C)co2)cc1C(C)C", "target.under.test": "NLRP3 inflammasome (Homo sapiens (Human))", "inhibition at 3 µM (%)": 11}

Now look at this one.
Ask: Tell us which inhibition at 3 µM value is on record for Cc1cn(C(F)F)nc1Nc1nc(C(=O)NS(=O)(=O)N2CCCOCC2)co1
Reply: 33
